Assayed system: D5D (Rattus norvegicus)
Construct: Rat liver microsomal assay was conducted
Sequence (Q920R3 whole entry): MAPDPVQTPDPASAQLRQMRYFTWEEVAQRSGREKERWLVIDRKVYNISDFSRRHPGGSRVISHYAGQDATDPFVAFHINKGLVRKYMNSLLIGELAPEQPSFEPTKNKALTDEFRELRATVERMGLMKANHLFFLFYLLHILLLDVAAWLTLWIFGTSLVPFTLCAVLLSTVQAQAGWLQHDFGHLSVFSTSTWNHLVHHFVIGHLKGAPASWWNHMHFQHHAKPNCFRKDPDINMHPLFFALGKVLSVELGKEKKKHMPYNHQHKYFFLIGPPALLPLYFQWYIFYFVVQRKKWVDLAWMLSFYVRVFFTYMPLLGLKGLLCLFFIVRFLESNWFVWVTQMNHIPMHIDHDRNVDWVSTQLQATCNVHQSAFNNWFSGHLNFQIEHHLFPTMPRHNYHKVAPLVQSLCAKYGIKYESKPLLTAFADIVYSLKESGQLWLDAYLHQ
Assay: Rat liver microsomal assay, conversion of DGLA to AA by D5D
Assay type: biochemical
Measure name: IC50 (µM)
Numbers only, in µM.

For this compound ( COc1cc(/C=C/C(=O)CC(=O)/C=C/c2ccc(O)c(OC)c2)ccc1O [Cucurmin, curcumin, reference compound] ), measured IC50 is 0.148

---

Assayed system: D5D (Rattus norvegicus)
Construct: Rat liver microsomal assay was conducted
Assay: Rat liver microsomal assay, conversion of DGLA to AA by D5D
Assay type: biochemical
Condition: inhibition of D5D conversion of DGLA to AA, rat liver microsomes; read-out: IC50 (rat microsome)
Measure name: pIC50
Give bare numbers, as −log10 of the molar value.

c1ccc2c(c1)CCc1ccccc1N2 [Iminodibenzyl, 10,11-dihydro-5H-dibenz[b,f]azepine] | 6.98

Could you now consider this next compound?
For this compound ( c1cc2c(cc1[C@H]1OC[C@H]3[C@@H]1CO[C@@H]3c1ccc3c(c1)OCO3)OCO2 [Sesame, sesamin, reference compound] ), measured pIC50 is 6.46
